Form: system (Progesterone receptor (Homo sapiens) (UniProt P06401)), quantity (log(RBA)), values below.
Answer as a number with no unit attached.

q: // lookup log(RBA) | system=Progesterone receptor (Homo sapiens) (UniProt P06401) | key= "CC(=O)O[C@]1(C(C)=O)CC[C@H]2[C@@H]3C[C@H](C)C4=CC(=O)CC[C@]4(C)[C@H]3CC[C@@]21C"
a: 2.29

q: Moving on to "C#C[C@]1(O)CC[C@H]2[C@@H]3CC[C@@H]4C[C@H](O)CC[C@@H]4[C@H]3CC[C@@]21C"
a: -1

q: Moving on to "CCCCCC(=O)O[C@]1(C(C)=O)CC[C@H]2[C@@H]3CCC4=CC(=O)CC[C@]4(C)[C@H]3CC[C@@]21C"
a: 1.88

q: Moving on to "CC(=O)[C@H]1CC[C@H]2[C@@H]3CCC4=CC(=O)CC[C@]4(C)[C@H]3CC(=O)[C@]12C"
a: -0.69

q: Moving on to "CC(=O)[C@@]12[C@@H](C[C@H]3[C@@H]4CCC5=CC(=O)CC[C@]5(C)[C@H]4CC[C@@]31C)C2(C)C"
a: 2.11

q: Moving on to "C#C[C@]1(O)CC[C@H]2[C@@H]3[C@H](C)CC4=C(CCC(=O)C4)[C@H]3CC[C@@]21C"
a: 0.78

q: Moving on to "C[C@]1(O)CC[C@H]2[C@@H]3CCC4=CCCC[C@@H]4[C@H]3CC[C@@]21C"
a: 0.78

q: Moving on to "CC(=O)[C@H]1CC[C@H]2[C@@H]3CC=C4C[C@@H](O)CC[C@]4(C)[C@H]3CC[C@]12C"
a: -0.69

q: Moving on to "CC(=O)[C@H]1CC[C@H]2[C@@H]3CCC4=CC(=O)CC[C@@H]4[C@H]3CC[C@]12C"
a: 2.11

q: Moving on to "C#C[C@]1(O)CC[C@H]2[C@@H]3CC[C@H]4CC(=O)CC[C@@H]4[C@H]3CC[C@@]21C"
a: 1.23

q: Moving on to "C#C[C@]1(O)CC[C@H]2[C@@H]3CCC4=CC(=O)CC[C@@H]4[C@H]3CC[C@@]21CC"
a: 2.22

q: Moving on to "C#C[C@]1(O)CC[C@H]2[C@@H]3CCC4=CCCC[C@@H]4[C@H]3CC[C@@]21C"
a: 0.7

q: Moving on to "C=CC[C@]1(O)CC[C@H]2[C@@H]3CCC4=CCCC[C@@H]4[C@H]3CC[C@@]21C"
a: 0.48

q: Moving on to "CC(=O)[C@H]1CC[C@H]2[C@@H]3CCC4=CC(=O)CC[C@]4(CO)[C@H]3CC[C@]12C"
a: -0.52

q: Moving on to "CC(=O)[C@@]1(O)CC[C@H]2[C@@H]3CCC4=CC(=O)CC[C@]4(C)[C@H]3CC[C@@]21C"
a: -0.15

q: Moving on to "C#C[C@]1(O)CC[C@H]2[C@H]3[C@H](CC[C@@]21C)[C@H]1CCCC=C1C[C@H]3C"
a: 0.3

q: Moving on to "C#C[C@]1(O)CC[C@H]2[C@@H]3CCC4=C[C@@H](O)CC[C@@H]4[C@H]3CC[C@@]21C"
a: 1.4

q: Moving on to "C[C@]12C[C@H](O)[C@H]3[C@@H](CCC4=CC(=O)CC[C@@]43C)[C@@H]1CC[C@@H]2C(=O)CO"
a: 0.3

q: Moving on to "C#C[C@]1(O)CC[C@H]2[C@@H]3CC[C@@H]4C[C@@H](O)CC[C@@H]4[C@H]3CC[C@@]21C"
a: -0.52
